Origin of values: ChEMBL document CHEMBL1150346

# assay.explanation: Displacement of [3H]DTG from opioid sigma2 receptor in rat brain homogenate
# Assay type: tissue-based
measured.metric: log10 of Ki (log10 of the value in nM)
Log scale reminder: Ki in nM, then log10 taken.

smiles.structure: CCN(CCc1ccc(OC(F)(F)F)cc1)CCN1CCCC1
measured.metric: log10 of Ki
measured.result: 1.51
//
smiles.structure: COc1ccc(CCN(C)CCN2CCCCC2)cc1
measured.metric: log10 of Ki
measured.result: 2.62
//
smiles.structure: CCN(CCc1ccc(OC(F)(F)F)cc1)CCN1CCCCC1
measured.metric: log10 of Ki
measured.result: 1.41
//
smiles.structure: CN(CCc1ccccc1OC(F)(F)F)CCN1CCCCC1
measured.metric: log10 of Ki
measured.result: 1.76
//
smiles.structure: CCN(CCc1cccc(OC(F)(F)F)c1)CCN1CCCCC1
measured.metric: log10 of Ki
measured.result: 1.18

Consider the additional molecule presented here.
Enquiry: What does the record list as log10 of Ki for CN(CCc1cccc(OC(F)(F)F)c1)CCN1CCCC1 ?
Return: 1.60

---

Below are compounds with their Ki as measured on Sodium-dependent dopamine transporter (Homo sapiens, UniProt Q01959).
Sequence (Q01959 whole entry): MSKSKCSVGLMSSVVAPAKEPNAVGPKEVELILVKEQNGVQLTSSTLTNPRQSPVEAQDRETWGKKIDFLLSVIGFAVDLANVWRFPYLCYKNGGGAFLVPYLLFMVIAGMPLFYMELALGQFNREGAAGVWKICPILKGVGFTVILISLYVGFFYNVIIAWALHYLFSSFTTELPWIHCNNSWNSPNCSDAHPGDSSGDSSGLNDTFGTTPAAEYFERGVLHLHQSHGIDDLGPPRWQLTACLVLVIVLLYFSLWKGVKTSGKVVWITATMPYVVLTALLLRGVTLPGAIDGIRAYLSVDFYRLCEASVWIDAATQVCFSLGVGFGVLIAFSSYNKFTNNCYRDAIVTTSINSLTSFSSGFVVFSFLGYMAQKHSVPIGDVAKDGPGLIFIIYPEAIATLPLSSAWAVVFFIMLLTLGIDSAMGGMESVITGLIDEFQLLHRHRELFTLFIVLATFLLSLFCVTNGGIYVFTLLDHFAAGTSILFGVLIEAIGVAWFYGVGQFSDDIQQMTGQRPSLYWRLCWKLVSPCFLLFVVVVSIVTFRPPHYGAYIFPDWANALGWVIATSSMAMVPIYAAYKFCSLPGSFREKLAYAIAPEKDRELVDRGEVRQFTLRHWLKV

Previously resolved entries follow.
smiles.structure: CCN(CCc1ccccc1OC(F)(F)F)CCN1CCCC1
measured.metric: Ki
measured.result: 13.2 µM
--
smiles.structure: CN(CCc1ccccc1OC(F)(F)F)CCN1CCCCC1
measured.metric: Ki
measured.result: 11.9 µM
--
smiles.structure: CN(CCc1ccc(OC(F)(F)F)cc1)CCN1CCCCC1
measured.metric: Ki
measured.result: 4.12 µM
--
smiles.structure: CCN(CCc1cccc(OC(F)(F)F)c1)CCN1CCCCC1
measured.metric: Ki
measured.result: > 10 µM
--
smiles.structure: CN(CCc1cccc(OC(F)(F)F)c1)CCN1CCCCC1
measured.metric: Ki
measured.result: > 10 µM

Enquiry: What does the record list as Ki for CCN(CCc1ccc(OC(F)(F)F)cc1)CCN1CCCCC1 ?
Return: 2.39 µM

---

# target.of.assay: D(2) dopamine receptor (Homo sapiens, UniProt P14416)
# Sequence (P14416 whole entry): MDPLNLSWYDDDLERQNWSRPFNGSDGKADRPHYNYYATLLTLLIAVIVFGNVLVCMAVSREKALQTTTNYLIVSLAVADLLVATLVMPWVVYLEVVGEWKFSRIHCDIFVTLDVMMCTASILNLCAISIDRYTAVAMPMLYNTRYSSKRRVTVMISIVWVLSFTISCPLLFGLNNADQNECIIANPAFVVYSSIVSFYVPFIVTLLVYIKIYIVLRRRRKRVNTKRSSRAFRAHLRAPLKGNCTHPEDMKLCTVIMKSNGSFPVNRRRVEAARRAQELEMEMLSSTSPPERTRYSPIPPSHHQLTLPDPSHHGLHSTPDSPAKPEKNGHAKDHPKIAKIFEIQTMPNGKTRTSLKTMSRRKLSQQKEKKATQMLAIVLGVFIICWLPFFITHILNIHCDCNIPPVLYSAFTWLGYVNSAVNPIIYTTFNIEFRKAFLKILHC
# assay.explanation: Binding affinity at dopamine D2 receptor
measured.metric: Ki

Previously resolved entries follow.
smiles.structure: CN(CCc1ccccc1OC(F)(F)F)CCN1CCCC1
Ki: 0.516 µM

smiles.structure: COc1ccc(CCN(C)CCN2CCCCC2)cc1
Ki: > 10 µM

smiles.structure: CCN(CCc1ccc(OC(F)(F)F)cc1)CCN1CCCCC1
Ki: > 10 µM

Enquiry: What does the record list as Ki for CN(CCc1ccccc1OC(F)(F)F)CCN1CCCCC1 ?
Return: 0.146 µM

Enquiry: Continue with CN(CCc1cccc(OC(F)(F)F)c1)CCN1CCCC1
Return: > 10 µM

Enquiry: Continue with CCN(CCc1cccc(OC(F)(F)F)c1)CCN1CCCCC1
Return: > 10 µM

Enquiry: Continue with CCN(CCc1cccc(OC(F)(F)F)c1)CCN1CCCC1
Return: > 10 µM

Enquiry: Continue with CCN(CCc1ccccc1OC(F)(F)F)CCN1CCCCC1
Return: 0.213 µM

Enquiry: Continue with CN(CCc1ccc(OC(F)(F)F)cc1)CCN1CCCC1
Return: > 10 µM

Enquiry: Continue with CN(CCc1ccc(OC(F)(F)F)cc1)CCN1CCCCC1
Return: > 10 µM

Enquiry: Continue with CCN(CCc1ccc(OC(F)(F)F)cc1)CCN1CCCC1
Return: > 10 µM

Enquiry: Continue with CCN(CCc1ccccc1OC(F)(F)F)CCN1CCCC1
Return: 0.266 µM

Enquiry: Continue with CN(CCc1cccc(OC(F)(F)F)c1)CCN1CCCCC1
Return: > 10 µM
